Biological target: Serine hydrolase RBBP9 (Homo sapiens, UniProt O75884)
Sequence (O75884 whole entry): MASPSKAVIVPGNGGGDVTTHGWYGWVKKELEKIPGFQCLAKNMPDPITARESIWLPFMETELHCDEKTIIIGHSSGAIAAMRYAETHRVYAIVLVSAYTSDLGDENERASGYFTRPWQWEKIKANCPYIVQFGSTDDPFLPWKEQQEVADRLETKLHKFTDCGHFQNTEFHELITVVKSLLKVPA
Test: Displacement of fluorophosphate-rhodamine from RBBP9 transfected in human HEK293T cells proteomes after 30 mins by SDS-PAGE gel fluorescence assay
Type: cell-based, HEK-293T
REPORTED_ENDPOINT: IC50 (nM)

Worked cases, IC50 given:
COc1ccc(C(=O)ON=C2C=C(C)C(=O)C(C)=C2)cc1 = 1500
C/C(=N\OC(=O)C1CCCCC1)c1nccs1 = 640

A = COc1ccc(C(=O)O/N=C(\C)c2nccs2)cc1
B = C/C(=N\OC(=O)c1ccc(F)cc1)c1nccs1
Problem: Form field 'greater IC50' accepts A or B ; which applies? Mark your answer with the label of the selected entry.
Result: A
(A: 9200 nM, B: 5700 nM)

P = C/C(=N\OC(=O)c1ccc(Cl)cc1)c1nccs1
Q = CC1=CC(=NOC(=O)/C=C/c2ccccc2)C=C(C)C1=O
Problem: Exercise: compare P and Q ; which one has the greater IC50? Response format: the label of the selected entry.
Result: P
(P: 1900 nM, Q: 1200 nM)
